Data origin, for the record: patent US5885987A

Target or system: H1 receptor (Cavia porcellus, UniProt P31389)
Construct: guinea pig cerebromembranous protein; from tissue; host or cells: guinea pig cerebral (brain) membranes
Sequence (P31389 whole entry): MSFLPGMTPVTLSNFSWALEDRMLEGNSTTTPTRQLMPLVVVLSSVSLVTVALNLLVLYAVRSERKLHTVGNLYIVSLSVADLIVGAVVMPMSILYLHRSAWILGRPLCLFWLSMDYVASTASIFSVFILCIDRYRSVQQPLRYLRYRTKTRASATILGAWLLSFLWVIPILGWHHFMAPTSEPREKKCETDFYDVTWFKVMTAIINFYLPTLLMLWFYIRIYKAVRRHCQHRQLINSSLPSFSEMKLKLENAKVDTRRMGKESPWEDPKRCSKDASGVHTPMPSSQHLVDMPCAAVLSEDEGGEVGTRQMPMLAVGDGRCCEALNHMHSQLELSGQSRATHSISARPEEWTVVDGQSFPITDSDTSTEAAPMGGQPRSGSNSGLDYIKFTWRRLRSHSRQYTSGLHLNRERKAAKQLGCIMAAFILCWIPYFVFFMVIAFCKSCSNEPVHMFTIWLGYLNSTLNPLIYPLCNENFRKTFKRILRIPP
Protocol details: H1 receptor binding inhibition test ([^3 H]mepyramin, guinea pig cerebromembranous protein)
Test conditions: read-out: H1 receptor, dissociation constant KD
Measurement label: pKd
Please treat pKd as minus the base-10 logarithm of the molar concentration.

## Input State the recorded pKd for this entry: CCOCCn1c(COc2cccc(COc3ccc(C)c4c3C(C)(C)C(=O)N4)c2)nc2ccccc21 [Example 43]
## Output 5.22

## Input State the recorded pKd for this entry: CC1(C)C(=O)Nc2ccc(OCc3ccc(OCc4ccc5ccccc5n4)cc3)cc21 [Example 18]
## Output 4.10

## Input State the recorded pKd for this entry: O=C1CCc2ccc(OC(=O)c3cccc(OCc4ccc5ccccc5n4)c3)cc2N1 [Example 56]
## Output 4.03

***
## Input State the recorded pKd for this entry: O=C1CCc2ccc(OCc3ccc(OCc4ncc5ccccc5n4)cc3)cc2N1 [Example 35]
## Output 4.06

---

Target or system: LTD4 receptor (Cavia porcellus, UniProt Q2NNR5)
Construct: guinea pig pulmomembranous protein; from tissue; host or cells: guinea pig lung membranes
Protocol details: LTD4 receptor binding inhibition test ([^3 H]leukotriene D4, guinea pig pulmomembranous protein)
Test conditions: read-out: LTD4 receptor, dissociation constant KD
Measured Kd accompanies every entry in the list below.
Write down the numeric answer in nM and omit the unit.

## Input State the recorded Kd for this entry: O=C1Cc2c(cccc2OCc2cccc(OCc3ccc4ccccc4n3)c2)N1
## Output 703

## Input State the recorded Kd for this entry: Cn1c(COc2cccc(COc3ccc4c(c3)CCCC(=O)N4)c2)nc2ccccc21
## Output 310

## Input State the recorded Kd for this entry: Cc1ccc(OCc2ccc(OCc3ccc4ccccc4n3)cc2)c2c1NC(=O)C2(C)C
## Output 139

---

Target or system: LTD4 receptor (Cavia porcellus)
Construct: guinea pig pulmomembranous protein; from tissue; host or cells: guinea pig lung membranes
Sequence (Q2NNR5 1-340): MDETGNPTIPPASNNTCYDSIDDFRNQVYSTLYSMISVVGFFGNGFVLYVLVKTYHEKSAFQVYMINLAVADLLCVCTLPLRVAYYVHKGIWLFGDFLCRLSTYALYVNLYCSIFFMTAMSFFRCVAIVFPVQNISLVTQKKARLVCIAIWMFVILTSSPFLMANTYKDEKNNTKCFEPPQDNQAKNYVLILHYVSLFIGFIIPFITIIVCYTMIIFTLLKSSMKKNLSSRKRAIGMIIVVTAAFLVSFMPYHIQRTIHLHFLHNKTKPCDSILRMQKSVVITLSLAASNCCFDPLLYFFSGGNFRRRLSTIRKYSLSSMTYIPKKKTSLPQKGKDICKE
Protocol details: LTD4 receptor binding inhibition test ([^3 H]leukotriene D4, guinea pig pulmomembranous protein)
Test conditions: read-out: LTD4 receptor, dissociation constant KD
Measured Kd accompanies every entry in the list below.
Write down the numeric answer in nM and omit the unit.

## Input State the recorded Kd for this entry: O=C1CS(=O)(=O)c2cc(OCc3cccc(OCc4ccc5ccccc5n4)c3)ccc2N1
## Output 235000

***
## Input State the recorded Kd for this entry: Cc1ccc(OCc2cccc(OCc3ccc4ccccc4n3)c2)c2cc(C(=O)O)c(=O)[nH]c12
## Output 11700

## Input State the recorded Kd for this entry: O=C1CSc2c(cccc2NC(=O)c2cccc(OCc3ccc4ccccc4n3)c2)N1
## Output 208

## Input State the recorded Kd for this entry: CCOCCn1c(COc2cccc(COc3ccc(C)c4c3C(C)(C)C(=O)N4)c2)nc2ccccc21
## Output 5510
